Biological target: Androgen receptor (Homo sapiens, UniProt P10275)
Sequence (P10275 whole entry): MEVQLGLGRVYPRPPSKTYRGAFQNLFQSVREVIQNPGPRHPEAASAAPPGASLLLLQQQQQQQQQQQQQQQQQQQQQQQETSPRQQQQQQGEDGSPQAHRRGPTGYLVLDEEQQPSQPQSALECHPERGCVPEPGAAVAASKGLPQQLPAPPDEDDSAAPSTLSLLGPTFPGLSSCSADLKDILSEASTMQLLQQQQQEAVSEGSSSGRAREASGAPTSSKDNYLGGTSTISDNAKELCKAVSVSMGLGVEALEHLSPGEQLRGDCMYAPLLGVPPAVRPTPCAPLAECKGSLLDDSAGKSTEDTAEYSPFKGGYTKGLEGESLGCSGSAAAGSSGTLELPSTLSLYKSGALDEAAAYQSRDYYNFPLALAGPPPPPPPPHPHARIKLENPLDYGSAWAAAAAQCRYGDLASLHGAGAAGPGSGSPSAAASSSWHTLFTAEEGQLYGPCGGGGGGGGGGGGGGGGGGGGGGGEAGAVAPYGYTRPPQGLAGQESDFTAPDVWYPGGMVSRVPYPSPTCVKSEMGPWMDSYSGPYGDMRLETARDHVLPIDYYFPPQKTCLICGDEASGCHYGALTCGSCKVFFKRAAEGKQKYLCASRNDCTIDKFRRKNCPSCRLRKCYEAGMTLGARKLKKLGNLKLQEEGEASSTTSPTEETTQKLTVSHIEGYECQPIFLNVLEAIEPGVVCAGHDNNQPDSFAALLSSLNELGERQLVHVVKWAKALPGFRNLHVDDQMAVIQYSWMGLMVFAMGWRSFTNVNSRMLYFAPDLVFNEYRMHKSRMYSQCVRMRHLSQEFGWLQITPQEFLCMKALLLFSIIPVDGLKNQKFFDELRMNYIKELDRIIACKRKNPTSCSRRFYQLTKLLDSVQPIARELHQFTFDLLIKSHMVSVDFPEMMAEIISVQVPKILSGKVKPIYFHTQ
Assay: Antagonist activity at AR in human LNCaP cells transfected with PSA assessed as inhibition of R1881-induced PSA luciferase activity pretreated with compound followed by R1881 addition and measured after 48 hrs by luciferase assay
PARAMETER MEASURED: pIC50
Numbers only, as −log10 of the molar value.

Sure, the documented pIC50 for CCC(=O)N[C@H](C[C@H](C)C(Cl)(Cl)Cl)C(=O)N1C(=O)C=C(OC)[C@@H]1C[C@H](C)C(Cl)Cl is 5.19
